Value source: paper PMC11219860

assay: In vivo pharmacokinetics, free brain concentration (LC/MS); set-up: species or system mouse; conditions: male, C57Bl6/N, mouse, brain (frontal brain, unbound concentration), intraperitoneal; 10 mg/kg i.p., 45 minutes post-injection; read-out: free brain level
PROPERTY_LABEL: concentration at 45 min

Using the record for C[C@H]1c2cccc(C(C)(C)O)c2C[C@H](CO)N1C(=O)Cc1c(Cl)cccc1Cl , report its concentration at 45 min.
~110 nM
